These measurements were taken from PubChem BioAssay (NCI).

growth values, listed per item
- Tested on: A498 renal
- assay-protocol: NCI-60 one-dose screen, 48 h (100 = growth as untreated, 0 = no growth, -100 = all killed)
- experimental-setup: 10 µM unless noted
The panel holds about 83,000 compounds, 20% with a hit somewhere; the sample as a whole holds those more often.
value-type: growth (%)

Cc1ccc(C(=O)C[n+]2cccc3c4ccccc4ccc32)cc1    75.2
Cc1nn(-c2ccccc2)c2nc(C)n(C(=O)N/N=C/c3ccccc3)c(=O)c12    112
COc1cc(C2CC(c3ccc(S(=O)(=O)NCCNc4nc(N(C)C)nc(N5CCOCC5)n4)cc3)=Nc3c(N)nc(N)nc3N2)cc(OC)c1OC (stereo not given)    79
N/C(=N\c1nc2ccccc2s1)NC(=O)Nc1ccccc1F    78.4
O=C(N/N=C/c1ccc(Cl)cc1)c1ccc(OCc2nc3ccc(Cl)cc3[nH]2)cc1    129
